Data provenance: patent US20250296909A1

- Tested on: spleen T cells
- assay-protocol: T cell proliferation inhibition (CFSE, FACS), CD3/CD28-activated spleen T cells
- Type: cell-based, C57BL/6 mice
- test-settings: Mus musculus, T-cell, 72 h; Table 2; 50 μM; 3 days; relative to CD3/CD28+DMSO; read-out: Proliferation inhibition rate (%)
Listed below: inhibition at 50 µM values for each entry.
recorded-metric: inhibition at 50 µM (%)

> print(dat)
                         chemical.structure  measured.number
1  CCCCCCCCCCCCNS(=O)(=O)c1ccccc1[N+](=O)[O-]               68
2               CCCCCCCCCCCCNC(=O)c1ncccc1N              100
3  CCCCCCCCCCCCNC(=O)c1c(F)cccc1[N+](=O)[O-]              100
4              CCCCCCCCCCCCNC(=O)c1cccnc1OC               54
5               CCCCCCCCCCCCNC(=O)c1cnccc1N              100
6              CCCCCCCCCCCC(=O)NCc1ccccc1Br               72
7           CCCCCCCCCCCCNS(=O)(=O)c1cnccc1O               86

* * *

- Test system: T lymphocyte cell line Jurkat E6-1
- assay-protocol: Cytotoxicity experiment (CCK-8, relative cell survival)
- Type: cell-based
- test-settings: 30 μM; 24 hours; untreated cells = 100%
The reader will find reported Relative cell survival rate (%) values listed item by item below.
recorded-metric: Relative cell survival rate (%)

> print(dat)
                                   compound  measured.number
1     CCCCCCCCCCCCNS(=O)(=O)c1c(C)cc(C)cc1C               82
2  O=C(NCCCCCCCCCC1CO1)c1ccccc1Br (stereo not shown)               80
3               CCCCCCCCCCCCNC(=O)c1ccncc1N               88
4  CCCCCCCCCCCCNC(=O)c1cccnc1Nc1cccc(C(F)(F)F)c1               79

* * *

- Test system: T lymphocyte cell line Jurkat E6-1
- assay-protocol: Cytotoxicity experiment (CCK-8, relative cell survival)
- Format: cell-based
- test-settings: 20 μM; 24 hours; untreated cells = 100%
- Description: To evaluate the cytotoxicity of the compound according to the present invention, the following experiment was conducted. The T lymphocyte cell line Jurkat E6-1, purchased from the Korean Cell Line Bank, was cultured in RPMI-1640 medium comprising 10% FBS, 100 U/mL penicillin, and 100 μg/mL streptomycin. […] Absorbance was then measured at 450 nm to determine the relative cell survival rate compared to untreated cells, as shown in Table 4. […]
# Relative cell survival rate (%) per entry
recorded-metric: Relative cell survival rate (%)

> print(dat)
                          chemical.structure                       tested.target  measured.number
 1          CCCCCCCCCCCCNS(=O)(=O)c1ccccc1Br  T lymphocyte cell line Jurkat E6-1               89
 2        CCCCCCCCCCCCNS(=O)(=O)c1c(F)cccc1F  T lymphocyte cell line Jurkat E6-1               83
 3     CCCCCCCCCCCCNC(=O)c1ccccc1-c1ncc[nH]1  T lymphocyte cell line Jurkat E6-1               85
 4              CCCCCCCCCCCCNC(=O)c1cccnc1SC  T lymphocyte cell line Jurkat E6-1               68
 5  CCCCCCCCCCCCNC(=O)c1cccnc1Nc1cccc(C(F)(F)F)c1  T lymphocyte cell line Jurkat E6-1               91
 6          CCCCCCCCCCCCNC(=O)c1c(Cl)cccc1Cl  T lymphocyte cell line Jurkat E6-1              102
 7    CCCCCCCCCCCCNC(=O)c1ccccc1-c1ccc(C)cc1  T lymphocyte cell line Jurkat E6-1               77
 8        CCCCCCCCCCCCNC(=O)c1ccccc1C(F)(F)F  T lymphocyte cell line Jurkat E6-1               91
 9        CCCCCCCCCCCCNC(=O)c1ccccc1-n1cccc1  T lymphocyte cell line Jurkat E6-1               94
10  CCCCCCCCCCCCNC(=O)c1ccccc1C(=O)NC1CCCCC1  T lymphocyte cell line Jurkat E6-1               97
11                       CCCCNC(=O)c1ccccc1F  T lymphocyte cell line Jurkat E6-1              105
12           CCCCCCCCCCCCNC(=O)c1cccc(Cl)c1N  T lymphocyte cell line Jurkat E6-1               80
13       CCCCCCCCCCCCNC(=O)c1ccccc1Oc1ccccc1  T lymphocyte cell line Jurkat E6-1               94
14  CCCCCCCCCCCCNS(=O)(=O)c1ccccc1[N+](=O)[O-]  T lymphocyte cell line Jurkat E6-1               98
15         CCCCCCCCCCCCNC(=O)c1cc2ccccc2cc1N  T lymphocyte cell line Jurkat E6-1               62
16   CCCCCCCCCCCCNC(=O)c1ccccc1Nc1cccc(C)c1C  T lymphocyte cell line Jurkat E6-1               94
17          CCCCCCCCCCCCNC(=O)c1c(Cl)ccnc1Cl  T lymphocyte cell line Jurkat E6-1              109
18               CCCCCCCCCCCCNC(=O)Cc1ccccc1  T lymphocyte cell line Jurkat E6-1               90
19              CCCCCCCCCCCCNC(=O)c1ncccc1Br  T lymphocyte cell line Jurkat E6-1               97
20    CCCCCCCCCCCCNC(=O)c1ccccc1[N+](=O)[O-]  T lymphocyte cell line Jurkat E6-1               75
21               CCCCCCCCCCCCNC(=O)c1ncccc1N  T lymphocyte cell line Jurkat E6-1               93
22               CCCCCCCCCCCCNC(=O)c1ccccc1I  T lymphocyte cell line Jurkat E6-1               78
